Tested target: T1, cyno BMP9 (cyno, UniProt G7PEU8 320-429)
T1 sequence: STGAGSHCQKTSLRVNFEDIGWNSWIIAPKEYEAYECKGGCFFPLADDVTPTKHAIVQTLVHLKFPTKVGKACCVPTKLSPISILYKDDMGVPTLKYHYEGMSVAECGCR
Test method notes: MSD-SET solution equilibrium titration
Reported Kd by item:
Property measured: Kd (pM)

Binder	Result value
Antibody BMP9-2: MOR022962 (antibody, human IgG1, kappa, V domains shown) VH: QVQLLESGGGLVQPGGSLRLSCAASGFTFSSYAMSWVRQAPGKGLEWVSITLGTGHTHYADSVKGRFTISRDNSKNTLYLQMNSLRAEDTAVYYCARGSYIIWSALDYWGQGTLVTVSS VL: DIQMTQSPSSLSASVGDRVTITCRASQDIRSYLNWYQQKPGKAPKLLIYDASNLQSGVPSRFSGSGSGTDFTLTISSLQPEDFATYYCQQSDTSPLTFGQGTKVEIKR	18
Antibody BMP9-3: MOR023795 (antibody, human IgG1, lambda, V domains shown, Fully human, phage display) VH: EVQLVQSGAEVKKPGESLKISCKGSGYSFTTYWIGWVRQMPGKGLEWMGIIYPEGSYTTYSPSFQGQVTISADKSISTAYLQWSSLKASDTAMYYCARGKRVDASSFDYWGQGTLVTVSS VL: QSVLTQPPSVSGAPGQRVTISCSGSSSNIGDNYVSWYQQLPGTAPKLLIYRNNKRPSGVPDRFSGSKSGTSASLAITGLQAEDEADYYCSSTDKEHLVFGGGTKLTVLG	262
